The origin of these recorded values is patent US20260209219A1.

- System tested: rM4 receptors (Rattus norvegicus, UniProt P08485)
- Sequence (P08485 whole entry): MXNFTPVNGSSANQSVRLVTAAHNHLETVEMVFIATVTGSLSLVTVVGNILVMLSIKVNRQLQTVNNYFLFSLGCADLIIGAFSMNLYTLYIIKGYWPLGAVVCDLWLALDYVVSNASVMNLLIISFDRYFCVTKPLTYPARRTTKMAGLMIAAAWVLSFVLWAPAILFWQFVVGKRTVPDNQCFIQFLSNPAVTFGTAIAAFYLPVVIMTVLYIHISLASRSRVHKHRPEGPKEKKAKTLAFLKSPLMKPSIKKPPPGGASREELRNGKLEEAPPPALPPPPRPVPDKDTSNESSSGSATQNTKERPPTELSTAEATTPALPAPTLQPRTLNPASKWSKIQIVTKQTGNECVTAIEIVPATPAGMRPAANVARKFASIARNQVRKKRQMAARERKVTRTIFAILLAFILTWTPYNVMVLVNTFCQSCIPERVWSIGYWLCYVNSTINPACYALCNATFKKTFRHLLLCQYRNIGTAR
- Assay: Rat M4 PAM pERK assay
- Experimental context: CHO cells expressing rM4; with EC20 of acetylcholine (10 nM final)
Let's look at some molecules and their measured EC50.

Known EC50 results, listed for orientation:
INSERT INTO assay_data (molecule, system_tested, readout_value) VALUES
  ('Cc1c2c(n(C)c(=O)c1Cl)CN(C(=O)CC1CC1c1cc(F)cc(F)c1)C2 (stereo not shown) [Compound I-34]', 'rM4 receptors (Rattus norvegicus, UniProt P08485)', '< 0.1 µM'),
  ('Cc1c2c(n(C)c(=O)c1C)CN(C(=O)CC1CC1c1cc(F)cc(F)c1)C2 (single isomer, unassigned) [Compound I-22]', 'rM4 receptors (Rattus norvegicus, UniProt P08485)', '> 2 µM'),
  ('Cc1c2c(n(C)c(=O)c1C)CN(C(=O)CC1CC1c1ccc(C(F)(F)F)cc1)C2 (single isomer, unassigned) [Compound I-19]', 'rM4 receptors (Rattus norvegicus, UniProt P08485)', '> 2 µM');

Query: EC50; subject: Cc1c2c(n(C)c(=O)c1Cl)CN(C(=O)CC1CC1c1cc(F)cc(F)c1)C2 (single isomer, unassigned) [Compound I-35]
> 2 µM

Same for COc1c2c(n(C)c(=O)c1C)CN(C(=O)CC1CC1c1ccc(C(F)(F)F)cc1)C2 (stereo not shown) [Compound I-30]
0.5 to 2 µM

What do we get for Cc1cc(=O)n(C)c2c1CN(C(=O)CC1CC1c1ccc(C3COC3)cc1)C2 (stereo not shown) [Compound I-15] ?
0.5 to 2 µM

Thanks! And Cc1c2c(n(C)c(=O)c1Cl)CN(C(=O)CC1CC1c1ccc(C(F)(F)F)cc1)C2 (single isomer, unassigned) [Compound I-33] ?
< 0.1 µM

----------
- System tested: human M4 receptor (Homo sapiens)
- Sequence (P08173 1-479): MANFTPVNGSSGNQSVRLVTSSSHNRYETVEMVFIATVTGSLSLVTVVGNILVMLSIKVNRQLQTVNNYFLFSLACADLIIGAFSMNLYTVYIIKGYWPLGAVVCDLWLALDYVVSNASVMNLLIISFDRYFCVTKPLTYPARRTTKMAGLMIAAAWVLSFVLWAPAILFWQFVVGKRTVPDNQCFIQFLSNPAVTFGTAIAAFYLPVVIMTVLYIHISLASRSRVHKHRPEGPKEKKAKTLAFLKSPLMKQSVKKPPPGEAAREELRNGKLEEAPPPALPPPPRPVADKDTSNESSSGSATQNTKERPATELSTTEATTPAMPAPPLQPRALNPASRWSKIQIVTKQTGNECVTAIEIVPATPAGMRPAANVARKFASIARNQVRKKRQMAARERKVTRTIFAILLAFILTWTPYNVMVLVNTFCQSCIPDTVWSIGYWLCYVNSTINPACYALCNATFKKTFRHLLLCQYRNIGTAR
- Assay: M4 GTPγS PAM assay
- Experimental context: membranes of CHO-K1 cells stably expressing human M4; EC20 acetylcholine 40 nM
pEC50: −log10 of the molar value.
Listing of recorded pEC50 by entry.

INSERT INTO measurements (compound, assay_metric, readout_value) VALUES
  ('Cc1c2c(n(C)c(=O)c1F)CN(C(=O)CC1CC1c1ccc(C(F)(F)F)cc1)C2 (single isomer, unassigned) [Compound I-25]', 'pEC50', '6.30 to 7.00'),
  ('COc1c2c(n(C)c(=O)c1C)CN(C(=O)CC1CC1c1ccc(C(F)(F)F)cc1)C2 (single isomer, unassigned) [Compound I-29]', 'pEC50', '> 7.00'),
  ('COc1c2c(n(C)c(=O)c1C)CN(C(=O)CC1CC1c1ccc(C(F)(F)F)cc1)C2 (stereo not drawn) [Compound I-30]', 'pEC50', '< 5.70');

Would you kindly share the measured pEC50 for Cc1c2c(n(C)c(=O)c1Cl)CN(C(=O)CC1CC1c1ccc(C(F)(F)F)cc1)C2 (single isomer, unassigned) [Compound I-33] ?
> 7.00

Repeat for the following compound: Cc1cc(=O)n(C)c2c1CN(C(=O)CC1CC1c1ccc(C(F)(F)F)nc1)C2 (single isomer, unassigned) [Compound I-4]
< 5.70

Subsequent entry: Cc1cc(=O)n(C)c2c1CN(C(=O)CC1CC1c1ccc(C(F)(F)F)nc1)C2 (single isomer, unassigned) [Compound I-5]
5.70 to 6.30
